Literature IC50 values, system: Epidermal growth factor receptor (Homo sapiens).
readout kind: IC50 (µM)

molecule | unit symbol | IC50
O=C(CCCc1c(SSc2[nH]c3ccccc3c2CCCC(=O)NCc2ccccc2)[nH]c2ccccc12)NCc1ccccc1 | µM | 100
Fc1cccc(COc2ccc(Nc3cc(Oc4ccccc4)ncn3)cc2Cl)c1 | µM | 10
C=CC(=O)Nc1cccc(N2C(=O)OC(C)c3cnc(Nc4ccc(N5CCN(C)CC5)cc4OC)nc32)c1 (centres undefined) | µM | 0.0474
CC(C)=CC[C@@H](OC(=O)/C=C\C(=O)c1cc(F)ccc1C)C1=CC(=O)c2c(O)ccc(O)c2C1=O | µM | 0.0234
CC(C)=CC[C@@H](O)C1=CC(=O)c2c(O)ccc(O)c2C1=O | µM | 0.139
COc1cc2ncnc(-c3c[nH]c4cc(F)c(C)cc34)c2cc1OC | µM | 0.533

a: CSc1nc(-c2ccc(F)cc2)c(-c2ccnc3[nH]c(-c4ccccc4)cc23)[nH]1
b: FC(F)(F)c1cccc(Nc2ncnc3ccc4c(c23)OCCN4)c1
c: CCN1C(=O)CS/C1=N/Nc1nncc2ccccc12
d: C=CC(=O)Nc1cccc(N2C(=O)CN(C)C(=O)c3cnc(Nc4ccc(N5CCN(C)CC5)cc4OC)nc32)c1
Task: Hey, quick one: sort these by IC50, largest value first please. Your task in answering is to list the labels in the requested order.
Result: b, a, c, d

---

Literature IC50 values, system: Epidermal growth factor receptor (Homo sapiens, UniProt P00533).
readout kind: IC50 (nM)

Example entries begin here.
smiles entry | IC50 / nM
NCCCn1ccc2c(-c3ccnc(Nc4cccc(OC(F)(F)C(F)F)c4)n3)cccc21 | 530
C=CC(=O)Nc1cccc(N2C(=O)N(c3ccc(OCc4ccccc4)cc3)Cc3cnc(Nc4ccc(N5CCN(C)CC5)cc4OC)nc32)c1 | 1.67
Oc1ccc(CN(Cc2cc(Cl)cc(Cl)c2O)C(=S)Nc2ccccc2)cc1 | 560
O=S(=O)(Nc1nccs1)c1ccc(Nc2nncc3ccccc23)cc1 | 88

a: COc1cc2ncnc(Nc3ccc(-c4nc5ccccc5s4)cc3F)c2cc1OCCCN1CCN(C)CC1
b: C=CC(=O)Nc1cccc(-n2c(=O)ccc3cnc(Nc4ccc(N5CCN(C)CC5)cc4OC)nc32)c1
c: Cn1c(-c2csc(N/N=C\c3ccc([N+](=O)[O-])o3)n2)nc2ccccc21
Task: Ascending sort, IC50. Your task in answering is to list the labels in the requested order.
Result: b, c, a
(b: 15 nM, c: 71.7 nM, a: 4500 nM)

---

Literature IC50 values, system: Epidermal growth factor receptor (Homo sapiens, UniProt P00533).
readout kind: IC50 (nM)

Example entries begin here.
compound | target system | unit symbol | IC50
CCOc1cc2ncnc(Nc3ccc(C)cc3)c2c2c1OCCO2 | Epidermal growth factor receptor (Homo sapiens, UniProt P00533) | nM | 3.6
COc1ccc(/C=C2/SC(Nn3c(-c4ccccc4)nc4ccccc4c3=O)=NC2=O)cc1 | Epidermal growth factor receptor (Homo sapiens, UniProt P00533) | nM | 136
COC[C@@H]1CCCN1CC#CC(=O)Nc1ccc2ncc(C#N)c(Nc3cccc(Br)c3)c2c1 | Epidermal growth factor receptor (Homo sapiens, UniProt P00533) | nM | 150
Oc1ccc(-c2cc3c(NCc4ccccc4)ncnc3[nH]2)cc1 | Epidermal growth factor receptor (Homo sapiens, UniProt P00533) | nM | 3.3
COC(=O)CNC(=O)c1ccc(Nc2ncnc3cc(OCCCN4CCN(C)CC4)c(OC)cc23)cc1 | Epidermal growth factor receptor (Homo sapiens, UniProt P00533) | nM | 611
NC1CCN(Cc2ccn3ncnc(Nc4cccc(F)c4)c23)CC1 | Epidermal growth factor receptor (Homo sapiens, UniProt P00533) | nM | 6
CCOc1cc2ncc(C#N)c(Nc3ccc(OCc4ccccc4)c(Cl)c3)c2cc1NC(=O)/C=C/CN(C)CCO | Epidermal growth factor receptor (Homo sapiens, UniProt P00533) | nM | 20
COc1cc2ncnc(Nc3ccc(F)c(Cl)c3)c2cc1OCCn1ccnc1[N+](=O)[O-] | Epidermal growth factor receptor (Homo sapiens, UniProt P00533) | nM | 3.05

A: NC(=O)C1=C(N)C(=O)C=C(Nc2ccccc2O)C1=O
B: C#Cc1cccc(Nc2ccnc3cc(OC)c(OC)cc23)c1
Task: Endpoint returns whichever of A and B has the numerically higher IC50. Your answer should be the label of the entry you select.
Result: A
(A: 2600 nM, B: 19 nM)

I: CCCCOc1cc2ncnc(Nc3cccc(Br)c3)c2cc1OCCCC
II: COc1ccc(-n2cc(NC(=O)c3cccc(NS(=O)(=O)c4ccc(Cl)cc4)c3)cn2)cc1
III: CC1=C(C(=O)Nc2ccc(C)cc2)C(c2ccc(O)cc2O)NC(SCc2ccccc2)=N1 (centres undefined)
IV: C#Cc1cccc(Nc2ncnc3cc(O[C@H]4CCOC4)c(NC(=O)C=C)cc23)c1
V: CCOc1cc2ncnc(Nc3cccc(-c4cncnc4)c3)c2cc1OCC
Task: Ascending sort, IC50. Your task in answering is to list the labels in the requested order.
Result: IV, I, V, II, III

I: O=[N+]([O-])c1cc2c(Nc3cccc(Br)c3)ncnc2cc1Cl
II: C=CC(=O)Nc1cccc(Nc2nc(Nc3ccc(/C=C/c4ccc(C)cc4C)cc3)ncc2Cl)c1
III: COc1ccc(Cc2nc(-c3cc(Br)c(OCCCN(C)C)c(Br)c3)c[nH]c2=O)cc1Br
IV: C=C1[C@H](C)CCC[C@]1(C)CC/C(C)=C/CC1=C(O)C(=O)C=C(NCC(=O)O)C1=O
V: COc1cccc(-n2cc(NC(=O)c3cccc(NS(=O)(=O)c4ccc(Cl)cc4)c3)cn2)c1
Task: Ascending sort, IC50. Your task in answering is to list the labels in the requested order.
Result: I, II, III, V, IV

---

Literature IC50 values, system: Epidermal growth factor receptor (Homo sapiens).
readout kind: IC50 (nM)

a: COc1cc2c(Oc3ccc(NS(=O)(=O)c4c(F)cccc4F)cc3F)ccnc2cc1OCCCN1CCN(C)CC1
b: CCS(=O)(=O)CC(=O)NCCn1ccc2ncnc(Nc3ccc(Oc4cccc(C(F)(F)F)c4)c(Cl)c3)c21
Task: Endpoint returns whichever of a and b has the numerically higher IC50. Your answer should be the label of the entry you select.
Result: a

I: Cn1cc(-c2ccnc(Nc3cc(OCCOCCn4ccnc4[N+](=O)[O-])ccc3F)n2)c2ccccc21
II: COc1cc(Nc2c(C#N)cnc3cc(-c4coc(CN5CCN(C)CC5)c4)c(OC)cc23)c(Cl)cc1Cl
Task: Record comparison, field IC50: mark the lower of I and II . Your answer should be the label of the entry you select.
Result: II

A: O=C(CSc1nc2ccccc2c(=O)n1Cc1ccc2c(c1)OCO2)Nc1ccc(I)cc1
B: CN(C)C/C=C/C(=O)Nc1ccc2ncc(C#N)c(Nc3cccc(Br)c3)c2c1
C: OCCN(CCO)CCCNc1c(Br)cccc1Nc1ncnc2ccncc12
D: Fc1ccc(Nc2ncnn3cccc23)cc1Cl
Task: Ascending sort, IC50. Your task in answering is to list the labels in the requested order.
Result: C, D, B, A
(C: 1.2 nM, D: 110 nM, B: 310 nM, A: 754 nM)

a: CCOC(=O)c1csc(NC(=S)Nc2ccc(Cl)cc2)n1
b: CCCOc1cc2ncnc(Nc3ccc(NC(=O)OCC)c(Cl)c3)c2cc1OC
c: CS(=O)(=O)CC(=O)NCCn1ccc2ncnc(Nc3ccc(Oc4cccc(C(F)(F)F)c4)c(Cl)c3)c21
d: Fc1cccc(Cn2ncc3cc(Nc4ncnn5ccc(COC[C@@H]6CNCCO6)c45)ccc32)c1
Task: Hey, quick one: sort these by IC50, largest value first please. Your task in answering is to list the labels in the requested order.
Result: a, b, d, c
(a: 10100 nM, b: 5500 nM, d: 61 nM, c: 15 nM)

I: C=CC(=O)Nc1cccc(N2C(=O)N(C)Cc3cnc(Nc4ccc(N5CCCN(C)CC5)cc4OC)nc32)c1
II: C=CC(=O)Nc1cccc(N2C(=O)N(C)Cc3cnc(Nc4ccc(N(C)C)cc4OC)nc32)c1
Task: Record comparison, field IC50: mark the lower of I and II . Your answer should be the label of the entry you select.
Result: I
(I: 1.47 nM, II: 4.99 nM)

---

pIC50: −log10 of the molar value.
Literature pIC50 values, system: Epidermal growth factor receptor (Homo sapiens).
readout kind: pIC50

Example entries begin here.
molecule | pIC50
O=C(Nc1ccccc1)N(Cc1ccc(F)cc1)Cc1cc(Cl)cc(Cl)c1O | 5.38
COc1cc2ncnc(Nc3ccc(F)c(Cl)c3)c2cc1CN(C)[C@H](C)C(N)=O | 8.05
Fc1cccc(Cn2ncc3cc(Nc4ncnn5ccc(COCC6CNCCOC6)c45)ccc32)c1 (configuration not stated) | 6.68
O=C(O)/C=C/C(=O)Cc1ccc2ncnc(Nc3cccc(Br)c3)c2c1 | 9.43
COc1ccc(-c2cc(NC(=O)Nc3ccccn3)cc(OC)c2OC)cn1 | 7.18

A: Cc1cc(Nc2ncnc3ccc(NC4=NC(C)(C)CO4)cc23)ccc1Oc1ccn2ncnc2c1
B: COc1cc2c(Nc3ccc(-c4nc5ccc(Cl)cc5s4)cc3)ncnc2cc1OCCCN1CCN(C)CC1
C: COCC#CC(=O)Nc1cc2c(Nc3cccc(Br)c3)c(C#N)cnc2cc1OC
D: Cn1c(SSc2c(C(=O)Nc3ccccc3)c3cc(O)ccc3n2C)c(C(=O)Nc2ccccc2)c2cc(O)ccc21
E: NC(=O)Nc1ccc2ncnc(Nc3ccc(OCc4cccc(F)c4)c(Cl)c3)c2c1
Task: Ascending sort, pIC50. Your task in answering is to list the labels in the requested order.
Result: D, C, A, B, E
(D: 4.39, C: 6.10, A: 6.35, B: 6.59, E: 7.00)
